# Study target: T1, CRBN, Q96SW2;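 note: pooled lentiviral library of zinc finger degron-EGFP fusions in mCherry-positive Jurkat cells, FACS-sorted after compound exposure, with degron abundance counted by next-generation sequencing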
# T1 chain: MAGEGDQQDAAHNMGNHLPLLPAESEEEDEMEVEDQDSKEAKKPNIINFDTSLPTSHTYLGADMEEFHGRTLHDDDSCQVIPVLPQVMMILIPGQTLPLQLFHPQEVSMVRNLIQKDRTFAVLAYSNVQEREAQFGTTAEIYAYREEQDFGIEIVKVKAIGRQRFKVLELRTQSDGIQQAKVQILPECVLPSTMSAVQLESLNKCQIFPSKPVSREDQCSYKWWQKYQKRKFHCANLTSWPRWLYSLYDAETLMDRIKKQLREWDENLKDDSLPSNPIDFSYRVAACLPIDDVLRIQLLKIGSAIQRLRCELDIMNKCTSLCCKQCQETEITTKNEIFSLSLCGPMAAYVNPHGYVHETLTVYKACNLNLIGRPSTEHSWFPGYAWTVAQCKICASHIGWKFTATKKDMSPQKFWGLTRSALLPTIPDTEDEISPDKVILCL
# Experiment notes: log2 fold change of degron read counts, EGFP-low vs EGFP+ sorted cells (limma voom), compound-induced degradation; higher = more compound-induced degradation of the degron-EGFP fusion; degrons are variants of IKZF1/3 zinc finger 2; compound dose not given here
# Condition: Jurkat; 18 h; compound: thalidomide
The full ranking holds about 8,300 sequences; the median of “log2 fold change of degron read counts, EGFP-low vs EGFP+ sorted cells (limma voom), compound-induced degradation” is about -1.1, and the highest 2% start at about 3.2. What follows is part of a selection rich in the highest values, with near analogues and random picks from the rest.
Parameter log2 fold change of degron read counts: see the listing below.
# respond with the number and nothing more

FLCNICGARFTQKGNLLRHIKL [46F_47L_49N_50I_52G_53A_54R_55F_67L_, Q9UKT9] : 0.842
LSCEICGFICTQKGNLLRHIKL [46L_47S_49E_50I_52G_53F_54I_55C_67L_, Q9UKT9] : 0.23
FFCEVCGADFTQKGNLLRHIKL [46F_47F_49E_50V_52G_53A_54D_55F_67L_, Q9UKT9] : -0.804

Next, consider the following sequence.
Reported log2 fold change of degron read counts ( FDCNQCGASFTQKGNLLRHIKL [46F_47D_49N_50Q_52G_53A_54S_55F_67L_, Q9UKT9] ) = -2.1
